In this section we review reported IC50 values for a set of molecules.
# target-desc: recombinant SARS-CoV-2 Main protease (Mpro) (Severe acute respiratory syndrome coronavirus 2 (2019-nCoV) (SARS-CoV-2), UniProt P0DTD1)
# assay-text: Cov Mpro Biochemical IC50 Assay
# setup-conditions: recombinant SARS-CoV-2 Mpro 7.5 nM, fluorogenic peptide substrate 40 μM; read-out: MPro IC50
Respond with the bare value in nM.

molecule: COc1cc(-c2cc3c(s2)c(=O)n(-c2cncc4nc(C(F)(F)F)n(C)c24)c(=O)n3CCC#N)c(Cl)cc1F (single isomer, unassigned) [Example 974]
IC50, nM: 242

molecule: COc1cc(-c2cc3[nH]c(=O)n(-c4cncc5ccccc45)c(=O)c3s2)c(C)cc1Cl [Example 716]
IC50, nM: 15.9

Query :: Sample COc1cccc(C#N)c1-c1cc2[nH]c(=O)n(-c3cncc4ccccc34)c(=O)c2s1 [Example 536] — what was its IC50?
Result :: 21.2
